Experimental Target: recombinant human CD70 tagged with mouse IgG2a Fc (AcroBiosystems Cat#CDL-H525a) (human; mouse) (UniProt P32970)
Sequence (P32970 39-193): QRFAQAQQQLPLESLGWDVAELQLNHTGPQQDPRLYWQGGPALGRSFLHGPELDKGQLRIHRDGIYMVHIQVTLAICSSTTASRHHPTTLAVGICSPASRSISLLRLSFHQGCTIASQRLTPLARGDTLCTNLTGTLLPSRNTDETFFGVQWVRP
Assay Info: indirect ELISA, hybridoma supernatant, coated antigen A at 1 µg/ml
I'd appreciate it if you could supply OD 450 values for the items below.
Param answer (str): number followed by unit.

Which measured OD 450 value corresponds to 19H7E4 (antibody, IgG1, V domains shown) VH: QVTLKESGPGILQPSQTLSLTCSFSGFSLSTSNVGVGWIRQPSGKGLEWLLHILWNDGKYYNPALKSRLTISKDTSTNQVFLKIADVDTADSATYYCARLRRDYGMDYWGQGTSVTVSS VL: DIVMSQSPSSLAVSVGEKVTMSCKSSQSLLYSYNQKNYLAWYQQKPGQSPKLLIYWASTRESGVPDRFTGSGSGTDFTLTISSVKAEDLAVYYCQQYYTYPYAFGGGTKLEIK ?
1.85 OD 450

# iterate: 11E12E8 (antibody, IgG1, V domains shown) VH: DVQLVESGGGLVQPGGSRKLSCAASGFTFSRFGMNWVRQAPEKGLEWVAYISSGSGDIYYADTVKGRFTISRDNPKNTLFLQMTSLRSEDTAMYYCAVTWFAYWGQGTLVTVSA VL: QAVVTQEPALTTSPGETVTLTCRSSTGAVTTSNYANWVQEKPDHLFTGLIGGTNNRAPGVPARFSGSLIGDKAALTITGAQTEDEAIYFCVLWYSNHFIFGSGTKVTVL
1.01 OD 450

# iterate: 4E6G9 (antibody, V domains shown) VH: QIQLVQSGPELKKAGETVKISCKASGYTFAAYSMHWVKQAPGKGLKWMGWINTETGEPTYADDFKGRFAFSLETSASTAYLQINNLKNEDTATYFCTRDDYDGGRFSYWYFAVWGAGTTVTVSS VL: DIQMTQSPSSLSASLGGKVTITCKASQDINKYIAWYQHRPGKGPRLLIRYTSTLQPGIPSRFSGSGSGRDYSFSINNLEPEDIATYYCLQYDNLLTFGGGTKLEIK
2.51 OD 450
